- Procedure summary: soluble on expression in E. coli; label from the status in PepcDB or PDB records
Property measured: soluble on expression in E. coli

Below are worked cases with known answers.
MGHHHHHHSHMASGSNWLSGVNVVLVMAYGSLDLKEEIDIRLSRVQDIKYEPQLLADDDARLLQLETQGNQKIPFHSEGRHPRSLMGKNFRSYLLDLRNTSTPFKGVRKALIDTLLDGYETARYGTGVFGQNEYLRYQEALSELATAVKARIGSSQRHHQSAAKDLTQSPEVSPTTIQVTYLPSSQKSKRAKHFLELKSFKDNYNTLESTL; not soluble
AIANVWLLGRGELRRRHDDVLQLERAFLTDRTGLHFVNARSSEDLLALAESRRAEQQWPVLDAEWISPVGTDTCDDLVWQNLESTLDGRPDTFYSTAGFEAGNTLSGTGELAPGEAFLAYRFWRPVRVYAVQLRAFQADFHPGRPVYPFQVARVGVGCSLQAGMSLSYGADASAPGTSCNYRCFCTTEQQTLVFDDPMVGVYLVICLKGFPQQQLTDRLHYAAVSGIRVFGEPISSPALENELSCLISRGFILDGRDAARWLDLRSAQEHAAPMHIPEDEVI; soluble
MGSDKIHHHHHHMKIDRSVIRSLALFAKMADDELDGLLTHATSRLVPPGEAIFEQGQSAAHFFLLIHGRLKVTQVTHDGQQIIVRMVHPGDLFGFARALQRSDYPGTATTAAESVILSWQTDLWPQFVEQNPHLAVSAMQTIGQRLEEAHTRIREMSTQEVERRVAHAVLRLSQQAGRKELDGIRIDFPISRQDIAEMTGTTLHTVSRILSSWESKGLVQGGRQKLLVCNLPGLAQLAEGETSQV; not soluble
MGSDKIHHHHHHMNYRDELILQWVNQQGKASVIELAQHCDISVETIRRDLNKLANKGLLHRTHGGAVSNKTKDLGSFFQTRKHINATAKRHIAQKALDLLYENAVIGLDASSTSWYFAYLMPDIPCTVVTNSMFNINALVNKSNVKTIVTGGVYSAKYEAFYGPLSEYLLQRLHINFSVFSCSGIDKNGNIWESNELNASLKRKMMEASERAYLLIDSSKFEKTSLIQLADLSKINTIFSDRSLPDNLQKYCEQHDIMTVL; not soluble
LLQLNIQNFAIVRSLDIDWQSGMTTITGETGAGKSIAIDALGLCLGDRATTNVVRPNCKKADLAATFEIKKNKMARAWLKQHELVSEHDSECILRRVISAEGRSKSYINGSQVPLVQLKEIGQLLINIHGQHDHQLIVKANQQCRLLDNYANHTPLLSAVKHYAQQWNKLNKELEMLQQSKQQREAEQQLIQYQVTELDEFSLQ; not soluble
MYRAIGMIELTSVARGIYATDQMLKIAYVDVVSATPVCPGKYIAIVQGDVAAVESSISTGIAISGEYLVDSFVLPNVHEGIFPAITATTMPDGTGALGIMESFSMASMITAADAALKAADVQALELRLGSGLGGKAYFTFTGDVAAVEAGIEAGKAIAMEKGLLVDIEVIPSPSDRLWTSLY; soluble

Would you kindly look at the next entry?
Entry DIGVWEYFPATDSLDWSDGVRRIHGVADEYEPSLDDALGFYHPDDRDKISKAVEQTIADREPYDIDLRIVRTDGDVRDVRAWGERVDDPQ , soluble on expression in E. coli reported as not soluble

---

- Procedure summary: soluble on expression in E. coli; label from the status in PepcDB or PDB records
Property measured: soluble on expression in E. coli

MNQKDTRKETLEFNKLQKRLRRNVGNAITDYNMIEEGDVVMACISGGKDSFAMLDILLNLQKAAPIKFEVVAVNLDQKQPGFPEHILPEYFETLNIPYYIVDKDTYSVVKEKVPEGKTTCGLCSRLRRGTLYSFAEKIGATKLALGHHMDDIVETMFLNMFHGSRLKAMPPKLRSDDGRNVVIRPLTYCREKDLIKYAEHKDFPIIPCNLCGSQENLQRQAIKAMLIDWDKKTPGRVEAIFKSIQNVSPSQLADRELFDFVNLPLDRDGSREEYEFSEAVVSSTNIDESLFIDVTNI; soluble
MSLQVWTKLFAKSPFKPLIKHAEVVVETVETLEKALEAWAKGDYEKMKELAVEVDRLEDVADRIKMELRESITAKLLMPVQRSDVLEYLHMQDKIADAAEDTAKWLLVRDRGNVPEDIKDIILKMGKESIRAAKLVYEAIKQMDMVVESGFSENEIKKEYDLIRQIEEVENKIDGLDTKLMRLVLNANISWTEGIYLLNIGRTISNISDKAKDAAERIRIMMSKEGHHHHHH; soluble

---

- Procedure summary: soluble on expression in E. coli; label from the status in PepcDB or PDB records
Property measured: soluble on expression in E. coli

GSLNITENESISTAVIDAINSGATLKDINAIPDDMMDDIYSYAYDFYNKGRIEEAEVFFRFLCIYDFYNVDYIMGLAAIYQIKEQFQQAADLYAVAFALGKNDYTPVFHTGQCQLRLKAPLKAKECFELVIQHSNDEKLKIKAQSYLDAIQ; soluble
MSQVSTEFIPTRIAILTVSNRRGEEDDTSGHYLRDSAQEAGHHVVDKAIVKENRYAIRAQVSAWIASDDVQVVLITGGTGLTEGDQAPEALLPLFDREVEGFGEVFRMLSFEEIGTSTLQSRAVAGVANKTLIFAMPGSTKACRTAWENIIAPQLDARTRPCNFHPHLKK; soluble
MGSDKIHHHHHHMRKIPPLRALQVFEAAARLQHFSRAAQELCITQSAVSHQVRLLEEHFALPLFRREGRSLRLTDKGEQLFQETARIFNELGELNLRLLGEKPEALRLAVYSSFAVKWLIPRLSGFRRLHPGIQVRLDMITEDPVLSHSSADMFITGQQDQKGYWQQLLHAERLIPVCSPELISSSDKLDLDWLSTQQLLTVDEGPLGLDWQRWFEHHRVAQPEEEQQQLFSHVLMAIEAAIAGQGVALASDFMVLDDIAKQRLVALPFAGIDTGFEFNFLCKQRRLQEPAIAAFVHWLTQQH; not soluble
MGHHHHHHSHMHPWNQQVPDKESGGGSHGNAASSCSRFHYSYAGVHSESTHFSLVLLLDWAMAFILCPLTCPGECEGSTGKLECCLCLPSQWAVLTAAPHPYRWSQEAGRVGEGKIGKTGRPRPRQNSLPSLHFWSPVVMCL; not soluble

---

- Procedure summary: soluble on expression in E. coli; label from the status in PepcDB or PDB records
Property measured: soluble on expression in E. coli

Completed entries (count: 4):
MAHHHHHHMSNNYFNNEAPPDNINNLSYDEGLEQQYNFTDNEEEIFSSFFSDNKKNICLPKSLREHMLIEYTAMFVNIEGDIAEFYLKLDNDVLIKFPFLHVDHPLHRYYEFVKLNTKKRLITKYPKIIPSPLKDLFQYVTDLENTKVINNEIKSKKLKEKQIEHVKNKKGNKQILMKQKENQSYSSLFMRYMQSDDEKSNSTVENDKNEEHNEDTLSNESMMEIDNIIKKLKDKKDKSSMQTARFYLQCIEKLKFLQYGTKQYKYFVQKLLYDQNRLNVNNSDIKVRQKIHSTDFLEFLLKTDEHKKSLDNVINEDIYEQQNSHETETERDDLQTMQDYRR; not soluble
MPNHQPVKKFKIIGGACKGLGLNLPNISSTRPTKAIVRESFFNTLQAEINGAHFIEVFSGSASMGLEALSRGAKSAVFFEQNKSAYKTLLENISLFKNRLKKEMEIQTFLDDAFKLLPTLCLKNGVLNIIYLDPPFETSGFLGIYEKCFQALERLLKRFNPKNLLVVFEHESMHEMPKSLVTLAIIKQKKFGKTTLTYFQLEHHHHHH; soluble
MGHHHHHHSHSQIQGVQTNDDLNNDSDDSSDNCVIVGFVKPLAERTPELVELSSDSEDLGSYEKMETVKTQEQEQSYSSGDSDVSRCSSPHSVLGKDEQINKGHCDSSTRIKSKKEEKRSTSLSSPRNLNSSVRGDRVYSPYNHRHRKRGRSRSSDSRSQSRSGHDQKNHRKHHGKKRMKSKRSRSRESSRPRGRRDKKRSRTRDSSWSRRSQTLSLSSESTSRSRSRSSDHGKRRSRSRNRDRYYLRNNYGSRYKWEY; not soluble
MSLRIEEIRRYHESLMVELDRIYRIAEAARKKGLDPELSVEIPIAKNMAERVEKLMNLQGLAKRIMELEEGGLSRELICFKVADEIVEGKFGEMPKEEAIDKAVRTAVAIMTEGVVAAPIEGIARVRIDRENFLRVYYAGPIRSAGGTAQVISVLVADYVRRKAEIGRYVPTEEEILRYCEEIPLYKKVANLQYLPSDEEIRLIVSNCPICIDGEPTESAEVSGYRNLPRVETNRVRGGMALVIAEGIALKAPKLKKMVDEVGIEGWEWLDALIKGEGHHHHHH; soluble

Now examine the next entry.
Form field soluble on expression in E. coli, entry MGLCVSKPSVAGSPEHYAAHVAEQATPSEEGSGTPAQATSSYSATDPALQGLARRGKKVDLSRSGLPERVALKTKLLANSLSDAKDAGVRSSIVKYGERTLKMLAANKQPDEALLKLDIKNLPALASVYNRRYPGLNIQHFDSPIDFLQSLSEQTTSVVSQRAVLRLERDGEHHVAADVRRRPNGEASVIVLEPARLLTFVTGHTQLRRQALSQLGENAKFAFIQVGAQKSAADCLMFDLHFALHAHQHSSLFDQWHDNMVNHGTIDPYGQGAASPDALLEDAGVELMLGEQMLPAIFYKHTHSSGVVEEVDRSQPGSAYTDVSTSGRQQQHESLEQRVQAFRVDRGYSASIETSRATKIRSALETAISDRQS : not soluble

Attribution: the DeepSol protein solubility set
